- Test system: A498 renal
- procedureSummary: NCI tumour cell line growth inhibition, 48 h
Returns true if the recorded TGI is greater than or equal to 40 µM, and false otherwise.

Solved cases (2 shown):
{"columns": ["compound", "groupLabel"],
 "data": [
  ["Cc1ccccc1C(=O)Oc1ccc(OCc2ccccc2)cc1", "true"],
  ["CCOC(=O)C1=C(Nc2ccc(Br)cc2)OC/C1=N\\NC(=O)c1ccccc1O", "true"]
]}

Has CS/C(c1ccccc1)=[N+](\[O-])Cc1ccccc1 a recorded TGI greater than or equal to 40 µM?
true

Has CC(C)CC12CC3CCC(CNC1=O)C32C (stereo not given) a recorded TGI greater than or equal to 40 µM?
true

Has COc1cc(C2CC(=O)Nc3c2ccc2ccccc32)cc(Br)c1OC (stereo not given) a recorded TGI greater than or equal to 40 µM?
false

Has CC(=O)OC(C)(C)CCC(=O)[C@](C)(O)[C@H]1[C@H](O)C[C@@]2(C)[C@@H]3CC=C4C(C)=C(OC5OC(CO)C(O)C(O)C5O)C(=O)C[C@@H]4[C@]3(C)C(=O)C[C@]12C (stereo not given in full) a recorded TGI greater than or equal to 40 µM?
true

Has O=C(Nc1nc2ccc([N+](=O)[O-])cc2s1)C(=O)C(C(=O)c1ccncc1)C1OC(=O)c2ccccc21 (stereo not given) a recorded TGI greater than or equal to 40 µM?
true

* * *

- Test system: UACC-62 melanoma
- procedureSummary: NCI tumour cell line growth inhibition, 48 h; in the data active = GI50 below about 0.43 µM; inactive = the rest
In this exercise, the only acceptable responses are active, inactive

Solved cases (5 shown):
{"columns": ["molecule", "groupLabel"],
 "data": [
  ["C[C@@H](COCCC(=O)N1CCN(c2ncc(C(F)(F)F)cn2)CC1)Nc1cn[nH]c(=O)c1C(F)(F)F", "inactive"],
  ["Nc1c(C(=O)N/N=C/c2ccc(-c3cc(Cl)c(Cl)cc3Cl)o2)cnn1-c1ccnc2c(C(F)(F)F)cccc12", "inactive"],
  ["CC(C)C[C@H](NC(=O)CCn1ccc2ncccc2c1=O)B(O)O", "inactive"],
  ["N#Cc1ccc(Oc2cccc(Oc3ccccc3)c2)cc1C#N", "inactive"],
  ["COc1cc(F)c(/C=C/c2cc(/C=C/c3cc(OC)c(OC)cc3F)n(-c3cc(F)cc(F)c3)n2)cc1OC", "inactive"]
]}

Okay, next one:
I would be grateful if you could indicate the recorded call for N#Cc1nc2c(S(=O)(=O)c3ccccc3)c(N)n(Cc3ccc(Cl)cc3)c2nc1C#N .
inactive

* * *

- Test system: EKVX NSCLC
- procedureSummary: NCI tumour cell line growth inhibition, 48 h
Please provide measured TGI for the entries that follow.

Worked cases, answers included:
{"columns": ["molecule", "TGI"],
 "data": [
  ["O=C(Nc1ccc(Br)cc1)C(=O)C(C(=O)c1ccccc1F)C1OC(=O)c2ccccc21 (stereo not given)", "> 100 µM"],
  ["CC(=O)NC1(C(=O)N[C@@H](Cc2ccccc2)C(=O)NC2CCCCC2)Cc2ccc3ccccc3c2-c2c(ccc3ccccc23)C1", "> 100 µM"],
  ["NC(=Nc1ccccc1)c1ccccc1N", "> 100 µM"],
  ["COc1cc(/C=C\\c2ccc(Br)cc2)cc(OC)c1OC", "> 100 µM"],
  ["CC1(C(=O)O)CCOc2ccccc21 (stereo not given)", "> 100 µM"]
]}

Quick batch: TGI for everything below.
1. O=C1C(=O)N(c2nccs2)C(=O)C(=O)C1c1nc2ccccc2s1
2. CC(=O)Oc1cc(OC(C)=O)c2c(C)cc(=O)oc2c1

1: > 100 µM; 2: > 100 µM
